These entries and their values trace back to ChEMBL document CHEMBL1143756.

target: Transient receptor potential cation channel subfamily V member 1 (Rattus norvegicus, UniProt O35433); assay: Displacement of [3H]RTX from rat TRPV1 receptor expressed in CHO cells; assay type: cell-based
Sequence (O35433 whole entry): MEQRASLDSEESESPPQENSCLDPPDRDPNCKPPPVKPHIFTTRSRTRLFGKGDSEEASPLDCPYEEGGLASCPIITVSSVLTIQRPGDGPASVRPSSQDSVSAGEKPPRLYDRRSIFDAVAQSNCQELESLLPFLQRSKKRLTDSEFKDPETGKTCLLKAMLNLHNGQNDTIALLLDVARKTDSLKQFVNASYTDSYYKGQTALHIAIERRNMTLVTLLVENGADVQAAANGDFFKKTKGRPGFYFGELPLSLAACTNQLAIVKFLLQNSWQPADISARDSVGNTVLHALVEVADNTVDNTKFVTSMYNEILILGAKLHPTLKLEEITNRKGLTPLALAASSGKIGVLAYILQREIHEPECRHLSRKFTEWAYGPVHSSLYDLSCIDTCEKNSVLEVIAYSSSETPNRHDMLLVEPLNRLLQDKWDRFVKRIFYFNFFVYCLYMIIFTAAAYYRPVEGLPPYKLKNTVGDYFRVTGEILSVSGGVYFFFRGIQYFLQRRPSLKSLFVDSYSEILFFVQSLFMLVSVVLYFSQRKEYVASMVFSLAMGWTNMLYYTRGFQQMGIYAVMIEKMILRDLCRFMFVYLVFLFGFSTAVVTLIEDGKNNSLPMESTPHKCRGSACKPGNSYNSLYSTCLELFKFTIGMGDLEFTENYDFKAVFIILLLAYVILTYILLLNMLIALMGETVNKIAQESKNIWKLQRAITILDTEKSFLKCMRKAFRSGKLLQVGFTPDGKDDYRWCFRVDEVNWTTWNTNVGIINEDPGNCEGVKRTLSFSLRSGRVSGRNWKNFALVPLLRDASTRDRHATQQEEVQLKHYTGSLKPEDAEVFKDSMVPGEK
Label key: y means Ki under 1000 nM; n means Ki of 1000 nM or more.

A selection of reference data follows.
compound: C[C@H](NC(=S)NCc1ccc(C(C)(C)C)cc1)c1ccc(NS(C)(=O)=O)cc1
class-label: n
--
compound: C[C@H](NC(=S)NCc1ccc(C(C)(C)C)cc1)c1ccc(NS(C)(=O)=O)c(F)c1
class-label: n
--
compound: CN(C)CCCN1c2ccccc2Sc2ccc(Cl)cc21 [CHLORPROMAZINE]
class-label: n

QUERY: Given the entry "COc1cc(CNC(=S)NCc2ccc(C(C)(C)C)cc2)ccc1NS(C)(=O)=O" , would its reported Ki be below 1000 nM?
RESULT: y

QUERY: Given the entry CC(NC(=S)NCc1ccc(C(C)(C)C)cc1)c1ccc(NS(C)(=O)=O)cc1 (stereo not given) , would its reported Ki be below 1000 nM?
RESULT: y
